Values compiled from patent US20060287319A1.

Below are CC50 values recorded for MT-2 cells.
Measured Metric: CC50

O=C1NC(=S)S/C1=C\c1ccc(-c2cc(C(=O)O)ccc2Cl)o1 [NB190]
> 437 µM
C=CCN1C(=O)/C(=C/c2ccc(-c3cc(C(=O)O)cc(C(=O)O)c3)o2)SC1=S [NB225]
> 386 µM
CCN1C(=O)/C(=C/c2ccc(-c3cccc(C(=O)O)c3)o2)SC1=S [NB179]
> 616 µM
Cc1c(C(=O)O)cccc1-c1ccc(/C=C2\SC(=S)N(CC(=O)O)C2=O)o1 [NB228]
> 397 µM
CC(C)CN1C(=O)S/C(=C\c2ccc(-c3ccc(Cl)c(C(=O)O)c3)o2)C1=O [NB193]
> 394 µM
